# reported pIC50; entries follow
- Tested on: UV4
- run.description: The compound was tested for growth inhibition against UV4 tumor cell line(chinese hamster ovary).
- Assay type: functional, cell-based, Cricetulus griseus
- measurement.parameters: Cricetulus griseus, UV4
pIC50: −log10 of the molar value.
endpoint.name: pIC50

> print(dat)
                                   compound  value.measured
1  CC(=O)Nc1ccc(/C=C/C(=O)N2CC(CCl)c3c2cc(N)c2ccccc32)cc1 (stereo not drawn)            8.85
2  Nc1ccc2[nH]c(C(=O)N3CC(CCl)c4c3cc(N)c3ccccc43)cc2c1 (stereo not drawn)            8.96
3  COc1cccc(/C=C/C(=O)N2CC(CCl)c3c2cc(N)c2ccccc32)c1 (stereo not drawn)            9.38
4  COc1ccc2[nH]c(/C=C/C(=O)N3CC(CCl)c4c3cc(N)c3ccccc43)cc2c1 (stereo not drawn)            9.66
5  COc1cc2cc(C(=O)N3CC(COS(C)(=O)=O)c4c3cc(N)c3ccccc43)[nH]c2c(OC)c1OC (stereo not drawn)            9.34
6  COc1cc2cc(C(=O)N3CC(CCl)c4c3cc(N)c3ccccc43)[nH]c2cc1OCCN(C)C (stereo not drawn)            8.68
7  CN(C)CCOc1ccc(/C=C/C(=O)N2CC(CCl)c3c2cc(N)c2ccccc32)cc1 (stereo not drawn)            9.25
8  COc1ccc(/C=C/C(=O)N2CC(CCl)c3c2cc(N)c2ccccc32)cc1 (stereo not drawn)           10.24

###

- Test system: SK-OV-3
- run.description: Tested for growth inhibition against SKOV3 tumor cell line(human ovarian).
- Type: functional, cell-based
- measurement.parameters: Homo sapiens, SK-OV-3
pIC50: −log10 of the molar value.
Parameter threshold = 9. Response is fulfilled when pIC50 meets or exceeds it, else not fulfilled.

> print(dat)
                                    compound       category
 1  Nc1ccc2[nH]c(C(=O)N3CC(CCl)c4c3cc(N)c3ccccc43)cc2c1 (configuration not stated)  not fulfilled
 2  COc1cc2cc(C(=O)N3CC(CCl)c4c3cc(N)c3ccccc43)[nH]c2cc1OCCN(C)C (configuration not stated)  not fulfilled
 3  CCCC(=O)Nc1cc(/C=C/C(=O)N2CC(CCl)c3c2cc(N)c2ccccc32)n(C)c1 (configuration not stated)  not fulfilled
 4  CC(=O)Nc1cc(C(=O)Nc2cc(C(=O)N3CC(CCl)c4c3cc(N)c3ccccc43)nn2C)nn1C (configuration not stated)  not fulfilled
 5  Nc1cc2c(c3ccccc13)C(CCl)CN2C(=O)c1cc2cc(NC(=O)c3cc4ccccc4o3)ccc2[nH]1 (configuration not stated)  not fulfilled
 6  CC(=O)Nc1ccc(/C=C/C(=O)N2CC(CCl)c3c2cc(N)c2ccccc32)cc1 (configuration not stated)  not fulfilled
 7  CN(C)CCOc1ccc(/C=C/C(=O)N2CC(CCl)c3c2cc(N)c2ccccc32)cc1 (configuration not stated)  not fulfilled
 8  COc1ccc2[nH]c(/C=C/C(=O)N3CC(CCl)c4c3cc(N)c3ccccc43)cc2c1 (configuration not stated)      fulfilled
 9  CN(C)CCOc1ccc2[nH]c(C(=O)N3CC(CCl)c4c3cc(N)c3ccccc43)cc2c1 (configuration not stated)  not fulfilled
10  COc1ccc(/C=C/C(=O)N2CC(CCl)c3c2cc(N)c2ccccc32)cc1 (configuration not stated)      fulfilled
11  CC(=O)Nc1cc(/C=C/C(=O)N2CC(CCl)c3c2cc(N)c2ccccc32)n(C)n1 (configuration not stated)  not fulfilled
12  CC(=O)Nc1ccc2[nH]c(C(=O)N3CC(CCl)c4c3cc(N)c3ccccc43)cc2c1 (configuration not stated)  not fulfilled
13  COc1cc(OCCN(C)C)c2[nH]c(C(=O)N3CC(CCl)c4c3cc(N)c3ccccc43)cc2c1 (configuration not stated)  not fulfilled
